assay: in vitro; conditions: human, hela cells, % viability
Each entry below carries its recorded viability at 28.5 h, 10 µM.

# molecule, viability at 28.5 h, 10 µM, %
records = [
    ("S=C(NCc1ccco1)NCc1cn(-c2ccccc2)nc1-c1ccccc1 [CBK266895]", 112),
    ("Brc1cn2ccnc2c(Nc2ccc3[nH]ccc3c2)n1 [CBK037449]", 102),
    ("Cc1cc(C)cc(NC(=O)c2ccc(CSc3nnc(N)s3)cc2)c1 [CBK266609]", 85.5),
    ("CCOCCCC(=O)N1CCn2c(nnc2-c2cncc(Br)c2)C1 [CBK304764]", 91.5),
    ("CC(=O)Nc1ccc(OC(=O)CSc2nc(C)cc(C)n2)cc1 [CBK266707]", 86.6),
    ("COc1ccccc1/C=C/CN1CCNC(=O)C1CC(=O)O (stereo not shown) [CBK269845]", 100),
    ("Cc1cc(Br)ccc1C(=O)Nc1ccc2ncccc2c1 [CBK159814]", 92.1),
    ("Cc1ccc(O)c(CN(CCCn2ccnc2)CC2CC=CCC2)c1 (stereo not shown) [CBK282829]", 86.7),
    ("COCCc1nc(C2CCN(C)CC2)n(Cc2ccccc2C)n1 [CBK307449]", 115),
    ("COc1ccc(-c2cc(C(F)(F)F)c3c(n2)sc2c(=O)cc(O)[nH]c23)cc1OC [CBK270201]", 84.6),
]

These data points were gathered from paper PMC12040169.
